Protein target, amino acids: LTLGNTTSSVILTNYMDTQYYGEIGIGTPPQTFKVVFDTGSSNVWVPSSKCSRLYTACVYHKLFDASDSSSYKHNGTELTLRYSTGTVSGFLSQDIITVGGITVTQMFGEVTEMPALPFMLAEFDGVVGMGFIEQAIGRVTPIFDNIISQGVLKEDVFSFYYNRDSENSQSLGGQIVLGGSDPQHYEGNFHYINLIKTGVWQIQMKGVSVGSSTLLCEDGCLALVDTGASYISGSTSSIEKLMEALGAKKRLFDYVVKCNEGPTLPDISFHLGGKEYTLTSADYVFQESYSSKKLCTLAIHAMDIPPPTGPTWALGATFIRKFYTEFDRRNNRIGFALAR
A collection of compounds and their measured pIC50
Units for pIC50: none; it is -log10 of a concentration expressed in mol/L.

QUERY: Give the measured pIC50 for CC[C@H](C)CNC(=O)C[C@H](O)[C@H](CC(C)C)NC(=O)[C@H](CCCCNC(=O)CNC(=O)C(C)C)NC(=O)C(Cc1cccc2ccccc12)Cc1cccc2ccccc12
RESULT: 7.13

QUERY: Identify pIC50 associated with the compound CC[C@H](C)CNC(=O)C[C@H](O)[C@H](CC(C)C)NC(=O)[C@H](CCCCNC(=O)CNC(N)=N[N+](=O)[O-])NC(=O)C(Cc1cccc2ccccc12)Cc1cccc2ccccc12
RESULT: 8.10

QUERY: Read the entry COC(=O)[C@H](CCS(C)(=O)=O)NC(=O)C[C@H](NC(=O)C(Cc1cccc2ccccc12)Cc1cccc2ccccc12)C(=O)N[C@@H](CC1CCCCC1)[C@@H](O)CC(=O)N[C@@H](CC(C)C)C(=O)NCc1ccccc1 and write its reported pIC50.
RESULT: 5.46

QUERY: For the compound CC[C@H](C)CNC(=O)C[C@H](O)[C@H](CC(C)C)NC(=O)[C@H](CCCCNC(=O)CNC(=NC#N)NC)NC(=O)C(Cc1cccc2ccccc12)Cc1cccc2ccccc12 , give its reported pIC50.
RESULT: 7.52

QUERY: Item CC[C@H](C)CNC(=O)C[C@H](O)[C@H](CC(C)C)NC(=O)[C@H](CCC(=O)NCC(=S)NC)NC(=O)C(Cc1cccc2ccccc12)Cc1cccc2ccccc12 : provide pIC50
RESULT: 5.05

QUERY: Identify measured pIC50 associated with CC[C@H](C)CNC(=O)C[C@H](O)[C@H](CC(C)C)NC(=O)[C@H](CCC(=O)NCC(=O)NC)NC(=O)C(Cc1cccc2ccccc12)Cc1cccc2ccccc12
RESULT: 4.82

QUERY: Give a short answer stating reported pIC50 for CC[C@H](C)CNC(=O)C[C@H](O)[C@H](CC(C)C)NC(=O)[C@H](CCCCNC(=O)CNC(=O)OCc1ccccc1)NC(=O)C(Cc1cccc2ccccc12)Cc1cccc2ccccc12 .
RESULT: 7.08

QUERY: Provide only the value of recorded pIC50 for CC[C@H](C)CNC(=O)C[C@H](O)[C@H](CC(C)C)NC(=O)[C@H](CCCCNC(=O)[C@@H]1CS(=O)(=O)CN1C(C)=O)NC(=O)C(Cc1cccc2ccccc12)Cc1cccc2ccccc12
RESULT: 6.33

These data points were gathered from patent US5034512A.
